- test_parameters: in n-butanol, 333.15 K
measurement_type: solubility (mole fraction)
Simply state the number, no unit and no words.

Which solubility (mole fraction) value is on record for `O=C(O)c1cccc2ccccc12` ?
0.0901

* * *

- test_parameters: in isopropanol, 308.15 K
measurement_type: solubility (mole fraction)
Lab note: record the figure alone, no unit after it.

For the compound `O=C(O)c1cccc2ccccc12` , what solubility (mole fraction) is on record?
0.0401

* * *

- test_parameters: in n-butanol, 318.15 K
measurement_type: solubility (mole fraction)
Format: numeric value only, no unit, no commentary.

Need solubility (mole fraction) of `O=C(O)c1cccc2ccccc12` , thanks.
0.0605

* * *

- test_parameters: in isopropanol, 323.15 K
measurement_type: solubility (mole fraction)
Give only the figure.

Dear colleague, I am looking for the recorded solubility (mole fraction) of the following molecule: `O=C(O)c1cccc2ccccc12`
0.0636

* * *

- test_parameters: in isobutanol, 313.15 K
measurement_type: solubility (mole fraction)
No unit in the answer, please; the number alone is enough.

Quick one: solubility (mole fraction) for `O=C(O)c1cccc2ccccc12` ?
0.0364

* * *

- test_parameters: in ethyl acetate, 308.15 K
measurement_type: solubility (mole fraction)
# respond with the number and nothing more

Consider the compound `O=C(O)c1cccc2ccccc12` and give its measured solubility (mole fraction).
0.0418

* * *

- test_parameters: in ethyl acetate, 328.15 K
measurement_type: solubility (mole fraction)
Respond numerically, and do not add a unit to the figure.

So what does the record say about solubility (mole fraction) for `O=C(O)c1cccc2ccccc12` ?
0.0673

* * *

- test_parameters: in isobutanol, 293.15 K
measurement_type: solubility (mole fraction)
Lab note: record just the number, no unit beside it.

Find the recorded solubility (mole fraction) belonging to `O=C(O)c1cccc2ccccc12` and report it.
0.0187

* * *

- test_parameters: in ethyl acetate, 303.15 K
measurement_type: solubility (mole fraction)
// response body must contain only the number

Need solubility (mole fraction), item `O=C(O)c1cccc2ccccc12`
0.0374

* * *

- test_parameters: in n-propanol, 308.15 K
measurement_type: solubility (mole fraction)
I only need the number, thanks.

Query (molecule): `O=C(O)c1cccc2ccccc12` ; field requested: solubility (mole fraction)
0.0407

* * *

- test_parameters: in n-propanol, 328.15 K
measurement_type: solubility (mole fraction)
Just the number, please, no unit after it.

# solubility (mole fraction) lookup, item `O=C(O)c1cccc2ccccc12`
0.0702

* * *

- test_parameters: in methanol, 333.15 K
measurement_type: solubility (mole fraction)
Give a plain numeric answer without units written out.

# solubility (mole fraction) lookup, item `O=C(O)c1cccc2ccccc12`
0.0557

* * *

- test_parameters: in acetic acid, 308.15 K
measurement_type: solubility (mole fraction)
Write no unit; give the number alone.

Could you tell me which solubility (mole fraction) is on file for `O=C(O)c1cccc2ccccc12` ?
0.0257

* * *

- test_parameters: in methanol, 303.15 K
measurement_type: solubility (mole fraction)

Need solubility (mole fraction) of `O=C(O)c1cccc2ccccc12` , thanks.
0.0269

* * *

- test_parameters: in n-propanol, 318.15 K
measurement_type: solubility (mole fraction)
Answer field: number only, no words.

So what's the measured solubility (mole fraction) for this one? `O=C(O)c1cccc2ccccc12`
0.0536

* * *

- test_parameters: in methanol, 323.15 K
measurement_type: solubility (mole fraction)
Please reply with the number alone, leaving off any unit.

Using the record for `O=C(O)c1cccc2ccccc12` , report its solubility (mole fraction).
0.0443

* * *

- test_parameters: in acetic acid, 298.15 K
measurement_type: solubility (mole fraction)
A bare number is all that is needed in reply.

GET /values?readout=solubility (mole fraction)&item= `O=C(O)c1cccc2ccccc12`
0.0194

* * *

- test_parameters: in n-propanol, 298.15 K
measurement_type: solubility (mole fraction)
Number, no unit, nothing else.

// lookup solubility (mole fraction) for `O=C(O)c1cccc2ccccc12`
0.0302

* * *

- test_parameters: in methanol, 293.15 K
measurement_type: solubility (mole fraction)
The answer should be written as a number, with no unit following it.

# query: solubility (mole fraction) of entry `O=C(O)c1cccc2ccccc12`
0.0206

* * *

- test_parameters: in isopropanol, 318.15 K
measurement_type: solubility (mole fraction)

Quick one: solubility (mole fraction) of `O=C(O)c1cccc2ccccc12` ?
0.0544

* * *

- test_parameters: in ethanol, 333.15 K
measurement_type: solubility (mole fraction)
Write no unit; give the number alone.

Fill blank: measured solubility (mole fraction) of the molecule `O=C(O)c1cccc2ccccc12` is ____.
0.0738

* * *

- test_parameters: in n-butanol, 293.15 K
measurement_type: solubility (mole fraction)

What does the record list as solubility (mole fraction) for `O=C(O)c1cccc2ccccc12` ?
0.03

* * *

- test_parameters: in ethanol, 323.15 K
measurement_type: solubility (mole fraction)
The answer should be a number; do not append a unit.

Reported solubility (mole fraction), compound `O=C(O)c1cccc2ccccc12` : ____
0.0574

* * *

- test_parameters: in n-propanol, 333.15 K
measurement_type: solubility (mole fraction)
Write the value as a bare number.

Recorded solubility (mole fraction) of `O=C(O)c1cccc2ccccc12` , please.
0.0795

* * *

- test_parameters: in methyl acetate, 308.15 K
measurement_type: solubility (mole fraction)

solubility (mole fraction) lookup needed for `O=C(O)c1cccc2ccccc12` , thanks.
0.0387

* * *

- test_parameters: in methyl acetate, 303.15 K
measurement_type: solubility (mole fraction)

Name the reported solubility (mole fraction) value associated with the compound `O=C(O)c1cccc2ccccc12`
0.0335

* * *

- test_parameters: in ethanol, 313.15 K
measurement_type: solubility (mole fraction)
The reply should be a number, written without any unit.

Can you look up the measured solubility (mole fraction) of `O=C(O)c1cccc2ccccc12` for me?
0.0457

* * *

- test_parameters: in methanol, 298.15 K
measurement_type: solubility (mole fraction)
Quick one: just the number, no unit, thanks!

Would you kindly share the measured solubility (mole fraction) for `O=C(O)c1cccc2ccccc12` ?
0.0229

* * *

- test_parameters: in isopropanol, 333.15 K
measurement_type: solubility (mole fraction)
No unit in the answer, only the number.

Form field: reported solubility (mole fraction) of `O=C(O)c1cccc2ccccc12`
0.0852

* * *

- test_parameters: in ethanol, 303.15 K
measurement_type: solubility (mole fraction)

// query solubility (mole fraction) value for entry `O=C(O)c1cccc2ccccc12`
0.0356

* * *

- test_parameters: in n-propanol, 303.15 K
measurement_type: solubility (mole fraction)
Form: value (number only, do not type unit).

Need solubility (mole fraction) of `O=C(O)c1cccc2ccccc12` , thanks.
0.0351

* * *

- test_parameters: in isobutanol, 328.15 K
measurement_type: solubility (mole fraction)
Just the number, please.

solubility (mole fraction) for `O=C(O)c1cccc2ccccc12` ?
0.0588

* * *

- test_parameters: in n-propanol, 323.15 K
measurement_type: solubility (mole fraction)
Give only the figure.

Using the record for `O=C(O)c1cccc2ccccc12` , report its solubility (mole fraction).
0.0604

* * *

- test_parameters: in acetic acid, 323.15 K
measurement_type: solubility (mole fraction)
Form rule: numeric answer, no unit written next to it.

Returns the measured solubility (mole fraction) for the input molecule. Input: `O=C(O)c1cccc2ccccc12`
0.0383

* * *

- test_parameters: in methyl acetate, 293.15 K
measurement_type: solubility (mole fraction)
Lab note: jot down the number only; don't add units.

So what does the record say about solubility (mole fraction) for `O=C(O)c1cccc2ccccc12` ?
0.0257

* * *

- test_parameters: in n-propanol, 293.15 K
measurement_type: solubility (mole fraction)
Give the figure by itself; no unit, no explanation.

For `O=C(O)c1cccc2ccccc12` , what is its reported solubility (mole fraction)?
0.027

* * *

- test_parameters: in n-butanol, 308.15 K
measurement_type: solubility (mole fraction)

Tell me the measured solubility (mole fraction) of `O=C(O)c1cccc2ccccc12` , please.
0.0444

* * *

- test_parameters: in n-butanol, 298.15 K
measurement_type: solubility (mole fraction)
// no unit string in output, number only

Reported solubility (mole fraction), molecule `O=C(O)c1cccc2ccccc12` : ____
0.0344

* * *

- test_parameters: in isobutanol, 318.15 K
measurement_type: solubility (mole fraction)
In your answer, state the number alone without any accompanying words.

GET /values?readout=solubility (mole fraction)&item= `O=C(O)c1cccc2ccccc12`
0.0427

* * *

- test_parameters: in isopropanol, 293.15 K
measurement_type: solubility (mole fraction)
Lab note: record just the number, no unit beside it.

solubility (mole fraction) lookup needed for `O=C(O)c1cccc2ccccc12` , thanks.
0.0251

* * *

- test_parameters: in n-butanol, 323.15 K
measurement_type: solubility (mole fraction)
// return a plain number; no unit text

Given the entry `O=C(O)c1cccc2ccccc12` , report its measured solubility (mole fraction).
0.0684

* * *

- test_parameters: in methyl acetate, 328.15 K
measurement_type: solubility (mole fraction)

Given the molecule `O=C(O)c1cccc2ccccc12` , what is its reported solubility (mole fraction)?
0.0622

* * *

- test_parameters: in acetic acid, 318.15 K
measurement_type: solubility (mole fraction)

Item `O=C(O)c1cccc2ccccc12` has what recorded solubility (mole fraction)?
0.0334
